All values here come from patent US20240158446A1.

SYSTEM_TESTED: GDP-bound KRAS wild-type protein (Homo sapiens, UniProt P01116)
Sequence (P01116 whole entry): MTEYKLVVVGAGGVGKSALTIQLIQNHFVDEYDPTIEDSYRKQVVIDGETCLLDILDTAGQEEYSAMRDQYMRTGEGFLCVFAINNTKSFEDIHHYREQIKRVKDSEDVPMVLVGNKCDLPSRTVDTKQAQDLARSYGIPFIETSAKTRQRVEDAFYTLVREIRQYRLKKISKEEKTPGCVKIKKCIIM
ASSAY: Binding to KRAS by surface plasmon resonance (SPR), Single Cycle Kinetics
APPLIED_CONDITIONS: SPR Single Cycle Kinetics, GDP-bound KRAS wild-type protein, 1:1 binding model; read-out: KRAS KD
*1 amine or outer side, *2 acyl side, *3 side chain or, on linkers, in order; H or OH if unused. Where a SMILES comes first, the peptide text is derived from it. Bridges are numbered along the chain shown (N, C = ends). [ ]: non-standard residue; d: D form. The star is where a group is joined. hPhe(3,5-F2-4-CF3) = N[C@@H](CCc1cc(F)c(C(F)(F)F)c(F)c1)C(=O)O; hPhe(3-Cl-4-CF3) = N[C@@H](CCc1ccc(C(F)(F)F)c(Cl)c1)C(=O)O; X27 = O=C([C@H](Cc1ccc(C(F)(F)F)cc1)N(CC1CC1)[*:1])[*:2]; NPrPhe(4-CF3) = CCCN[C@@H](Cc1ccc(C(F)(F)F)cc1)C(=O)O; NEtPhe(4-Me) = CCN[C@@H](Cc1ccc(C)cc1)C(=O)O; NMeGly(cPent) = CN[C@H](C(=O)O)C1CCCC1; Ac4c(3,3-F2) = NC1(C(=O)O)CC(F)(F)C1; NMeD = CN[C@@H](CC(=O)O)C(=O)O; NMeL = CN[C@@H](CC(C)C)C(=O)O; NMeNva = CCC[C@H](NC)C(=O)O; Morpholide = C1CN(*)CCO1; NMeA = CN[C@@H](C)C(=O)O; Ac5c = NC1(C(=O)O)CCCC1; Aze = O=C(O)[C@@H]1CCN1; Abu = CC[C@H](N)C(=O)O; Sar = CNCC(=O)O
hey, just use Yes if measured Kd is less than 0.2 nM, otherwise No

Here's what some known entries look like.
[[record]]
compound = "CCO[C@@H]1C[C@H]2C(=O)NC3(CC(C)(C)C3)C(=O)N(C)[C@@H](C(CC)CC)C(=O)N(C)[C@H](C(=O)N(C)C)CC(=O)N(C)[C@H]3CCC/C=C/c4ccc(cc4)C[C@@H](C(=O)N(C)CC(=O)N[C@@H](CCc4cc(F)c(C(F)(F)F)c(F)c4)C(=O)N2C1)N1CC/C=C\\C[C@@H](C1=O)N(C)C(=O)CN(C1CC1)C(=O)[C@H]([C@@H](C)CC)NC3=O [PP2955]"
discrete_label = "Yes"

[[record]]
compound = "CCCN1C(=O)CN(C)C(=O)CN(C)C(=O)[C@H]([C@@H](C)CC)NC(=O)[C@H](CC(C)C)N(C)C(=O)C[C@@H](C(=O)N2CCOCC2)N(C)C(=O)[C@H](C2CCCC2)N(C)C(=O)C2(CC(F)(F)C2)NC(=O)[C@@H]2CCCN2C(=O)[C@H](CCc2cc(F)c(C(F)(F)F)c(F)c2)NC(=O)CN(C)C(=O)[C@@H]1Cc1ccc(C(F)(F)F)cc1 [PP0766] ([NMeL]I[Sar][Sar][NPrPhe(4-CF3)][Sar][hPhe(3,5-F2-4-CF3)]P[Ac4c(3,3-F2)][NMeGly(cPent)][NMeD]-Morpholide; lactam N-11)"
discrete_label = "Yes"

[[record]]
compound = "CCCN1C(=O)CN(C)C(=O)CN(C)C(=O)[C@H]([C@@H](C)CC)NC(=O)[C@H](CC(C)C)N(C)C(=O)C[C@@H](C(=O)N2CCOCC2)N(C)C(=O)[C@H](C2CCCC2)N(C)C(=O)C2(CCCC2)NC(=O)[C@@H]2CCCN2C(=O)[C@H](CCc2ccc(C(F)(F)F)c(Cl)c2)NC(=O)CN(C)C(=O)[C@@H]1Cc1ccc(C(F)(F)F)cc1 [PP0060] ([NMeL]I[Sar][Sar][NPrPhe(4-CF3)][Sar][hPhe(3-Cl-4-CF3)]P[Ac5c][NMeGly(cPent)][NMeD]-Morpholide; lactam N-11)"
discrete_label = "Yes"

[[record]]
compound = "CCCN1C(=O)[C@@H]2CCN2C(=O)[C@H](C)N(C)C(=O)[C@H](CC)NC(=O)[C@H](CC(C)C)N(C)C(=O)C[C@@H](C(=O)N2CCOCC2)N(C)C(=O)[C@H](C2CCCC2)N(C)C(=O)C2(CCCC2)NC(=O)[C@@H]2CCCN2C(=O)[C@H](CCc2ccc(C(F)(F)F)c(Cl)c2)NC(=O)CN(C)C(=O)[C@@H]1Cc1ccc(C(F)(F)F)cc1 [PP0269] ([NMeL][Abu][NMeA][Aze][NPrPhe(4-CF3)][Sar][hPhe(3-Cl-4-CF3)]P[Ac5c][NMeGly(cPent)][NMeD]-Morpholide; lactam N-11)"
discrete_label = "No"

[[record]]
compound = "CCC[C@H]1C(=O)N[C@@H]([C@@H](C)CC)C(=O)N(C)CC(=O)N(C)[C@H]2CCCCN(C2=O)[C@@H](Cc2ccc(C(F)(F)F)cc2)C(=O)N(C)CC(=O)N[C@@H](CCc2cc(F)c(C(F)(F)F)c(F)c2)C(=O)N2C[C@H](OCC)C[C@H]2C(=O)NC2(CCC2)C(=O)N(C)[C@@H](C2CCCC2)C(=O)N(C)[C@H](C(=O)N(C)C)CC(=O)N1C [PP0694]"
discrete_label = "Yes"


IN: Is the reported Kd for CC[C@H](C)[C@@H]1NC(=O)[C@H](CC(C)C)N(C)C(=O)C[C@@H](C(=O)N2CCOCC2)N(C)C(=O)[C@H](C2CCCC2)N(C)C(=O)C2(CCCC2)NC(=O)[C@@H]2CCCN2C(=O)[C@H](CCc2ccc(C(F)(F)F)c(Cl)c2)NC(=O)CN(C)C(=O)[C@H](Cc2ccc(C(F)(F)F)cc2)N(CC2CC2)C(=O)CN(C)C(=O)CN(C)C1=O [PP0122] ([NMeL]I[Sar][Sar][X27][Sar][hPhe(3-Cl-4-CF3)]P[Ac5c][NMeGly(cPent)][NMeD]-Morpholide; lactam N-11) strictly below 0.2 nM?
OUT: No

IN: Also CC[C@H](C)[C@@H]1NC(=O)[C@H](CC(C)C)N(C)C(=O)C[C@@H](C(=O)N2CCOCC2)N(C)C(=O)[C@H](CC(C)C)N(C)C(=O)C2(CCCC2)NC(=O)[C@@H]2CCCN2C(=O)[C@H](CCc2ccc(C(F)(F)F)c(Cl)c2)NC(=O)CN(C)C(=O)[C@H](Cc2ccc(C)cc2)N(CC)C(=O)[C@@H]2CCN2C(=O)[C@H](C)N(C)C1=O [PP0016] ([NMeL]I[NMeA][Aze][NEtPhe(4-Me)][Sar][hPhe(3-Cl-4-CF3)]P[Ac5c][NMeL][NMeD]-Morpholide; lactam N-11) ?
OUT: No

IN: Also CCC[C@H]1C(=O)N[C@@H]([C@@H](C)CC)C(=O)N(C)CC(=O)N(C)CC(=O)N(CCC)[C@@H](Cc2ccc(C(F)(F)F)cc2)C(=O)N(C)CC(=O)N[C@@H](CCc2ccc(C(F)(F)F)c(Cl)c2)C(=O)N2CCC[C@H]2C(=O)NC2(CCCC2)C(=O)N(C)[C@@H](C2CCCC2)C(=O)N(C)[C@H](C(=O)N2CCOCC2)CC(=O)N1C [PP0189] ([NMeNva]I[Sar][Sar][NPrPhe(4-CF3)][Sar][hPhe(3-Cl-4-CF3)]P[Ac5c][NMeGly(cPent)][NMeD]-Morpholide; lactam N-11) ?
OUT: No
